- Test system: CDK11;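 also: KINOMEscan kinase panel screen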
- Construct: gene CDK19
- CONDITION: concentration: 1 μM,replicates: in singlicate; n = 1
MEASURED PARAMETER: %Inh
Remember to put the unit after the number in your answer.

Below: 3 compounds and their reported %Inh.
- COMPOUND: "CN(c1cccc(CNc2nc(Nc3ccc4c(c3)CC(=O)N4)ncc2C(F)(F)F)c1)S(C)(=O)=O"
  TESTED ON: "CDK11"
  REPORTED MEASUREMENT: "0%"
- COMPOUND: "CC(C)c1nc(-c2cccc(NS(=O)(=O)c3ccccc3)c2)c(-c2ccnc(Nc3ccc4c(c3)CN(C)CC4)n2)s1"
  TESTED ON: "CDK11"
  REPORTED MEASUREMENT: "0%"
- COMPOUND: "COc1cccc(C2=C(Nc3cccc(Cl)c3)C(=O)NC2=O)c1"
  TESTED ON: "CDK11"
  REPORTED MEASUREMENT: "0%"

Now take the following compound into account.
Q. Need %Inh of `NC(=O)Nc1sc(-c2ccc(F)cc2)cc1C(N)=O` , thanks.
A. 0%
